- testedTarget: Prostaglandin G/H synthase 1 (Homo sapiens, UniProt P23219)
- Sequence (P23219 whole entry): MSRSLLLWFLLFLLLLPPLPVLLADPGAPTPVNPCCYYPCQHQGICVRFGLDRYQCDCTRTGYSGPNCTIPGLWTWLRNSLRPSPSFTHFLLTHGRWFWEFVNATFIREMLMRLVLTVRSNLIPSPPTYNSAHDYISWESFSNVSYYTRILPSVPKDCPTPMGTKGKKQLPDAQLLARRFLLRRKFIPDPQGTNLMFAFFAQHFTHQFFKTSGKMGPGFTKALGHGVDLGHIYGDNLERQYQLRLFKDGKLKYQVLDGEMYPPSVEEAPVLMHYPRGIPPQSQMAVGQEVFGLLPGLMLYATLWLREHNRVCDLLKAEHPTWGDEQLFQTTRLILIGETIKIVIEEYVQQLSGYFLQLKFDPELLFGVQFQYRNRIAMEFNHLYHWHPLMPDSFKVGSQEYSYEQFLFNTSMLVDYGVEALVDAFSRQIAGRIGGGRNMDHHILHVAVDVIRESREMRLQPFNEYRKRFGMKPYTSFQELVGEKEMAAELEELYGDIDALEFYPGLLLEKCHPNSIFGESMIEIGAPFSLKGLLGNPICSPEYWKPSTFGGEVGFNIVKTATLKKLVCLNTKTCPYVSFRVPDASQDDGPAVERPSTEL
measuredParameter: IC50 (µM)

For orientation, consider the following solved cases.
recordSmiles | testedTarget | IC50 / µM
Nc1c(C(=O)N/N=C/c2cccc([N+](=O)[O-])c2)cnn1-c1ccc(S(N)(=O)=O)cc1 | Prostaglandin G/H synthase 1 (Homo sapiens, UniProt P23219) | 5
Nc1c(C(=O)N/N=C/c2ccccc2[N+](=O)[O-])cnn1-c1ccc(S(N)(=O)=O)cc1 | Prostaglandin G/H synthase 1 (Homo sapiens, UniProt P23219) | 4.8

(a) Nc1c(C(=O)N/N=C/c2ccccc2)cnn1-c1ccc(S(N)(=O)=O)cc1
(b) COc1ccc(/C=N/NC(=O)c2cnn(-c3ccc(S(N)(=O)=O)cc3)c2N)cc1
Sort a and b by IC50 descending and give the first. Response format: the label of the selected entry. a
